experiment: chemical genetic growth profiling, strain panel (AID 1159580);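 note: tested at 20 µM; growth read once vehicle control cultures reached saturation at 30 °C; 1 = growth at the plate median or of vehicle wells; lower values mean less growth of the strain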; settings: S. cerevisiae deletion strains, growth OD, locus YDL028C, strain MPS1, active compounds read low
Screen size: about 5,500 compounds; about 2,000 (36%) were called active. Another 18% or so got no clear call; they are omitted. This is one part of the list.
measured-parameter: normalized growth
Please give only the number in your answer, with no unit.

Field: example entries. Status: answers known.
| molecule | normalized growth |
| --- | --- |
| N#CC(C#N)=NNc1cc(C(F)(F)F)ccc1OCC(F)(F)F | 0.917 |
| CN(NC(=S)Nc1cc(Cl)ccc1Cl)c1ccc(C(F)(F)F)cc1[N+](=O)[O-] | 0.985 |
| O=C(NCc1ccc(F)c(Cl)c1)Nc1csc([N+](=O)[O-])c1 | 0.98 |

Req: Given the molecule "Nc1ccccc1C(=O)N/N=C\c1cc(Cl)cc(Cl)c1O" , what is its reported normalized growth?
Resp: 0.964

Req: Endpoint output: normalized growth of CCC1(c2ccccc2)OC(c2cc(Cl)cc(Cl)c2O)Nc2ccccc21 (stereo unspecified) . Value?
Resp: 0.966

Req: What measured normalized growth goes with "N#C/C(=N/Nc1ccc(C(F)(F)F)cc1)C(=O)C1CC1" ?
Resp: 0.938

====

assay: chemical genetic growth profiling, strain panel (AID 1159580); conditions: S. cerevisiae deletion strains, growth OD, locus YPR119W, strain clb2, active compounds read low
The whole screen tested about 5,500 compounds, of which about 2,000 (36%) were called active. Roughly 18% stayed inconclusive and do not appear here. The list shows a part of the results.
// normalized growth lookup, one value per entry
Give the figure only, with no unit attached.

| compound | measured-number |
| --- | --- |
| CCCCC/C=C\C/C=C\C/C=C\C/C=C\CCCC(=O)O | 0.969 |
| COc1cc2ccc(=O)oc2cc1O | 0.995 |
| O=c1cc(-c2ccc(O)cc2)oc2cc(O[C@@H]3O[C@H](CO)[C@@H](O)[C@H](O)[C@H]3O[C@@H]3OC[C@](O)(CO)[C@H]3O)cc(O)c12 | 0.984 |
| c1coc(CNc2ncnc3nc[nH]c23)c1 | 0.999 |
| CCS(=O)(=O)CCn1c([N+](=O)[O-])cnc1C | 1 |

Req: If you can, please state the reported normalized growth value of "COc1c(O)cc(O)cc1O" .
Resp: 0.997

Req: Consider the compound shown here: "O=c1[nH]c2ccccc2n1C1CCN(CCCC(c2ccc(F)cc2)c2ccc(F)cc2)CC1" What is its recorded normalized growth?
Resp: 0.995

Req: Can you share its normalized growth? I mean this compound: "N#Cc1ccc2c(c1)N(CCCN1CCC(O)CC1)c1ccccc1S2"
Resp: 1.02

Req: Looking for the measured normalized growth of Cn1nnnc1SCC1=C(C(=O)O)N2C(=O)C(NC(=O)C(OC=O)c3ccccc3)C2SC1 (stereo unspecified) , can you help?
Resp: 1.02

Req: # get_value(readout='normalized growth', item= "Cc1ncc([N+](=O)[O-])n1CCO" )
Resp: 0.992

Req: Name the recorded normalized growth for "OCCN1CCN(CCCN2c3ccccc3Sc3ccc(Cl)cc32)CC1" .
Resp: 0.991

====

assay: chemical genetic growth profiling, strain panel (AID 1159580); details: S. cerevisiae deletion strains, growth OD, locus YLR342W, strain FKS1 (second series), active compounds read low
The campaign covered roughly 5,500 compounds. About 2,000 (36%) were called active. About 18% were inconclusive and are not listed. Some of the results follow.
measured-parameter: normalized growth

| molecule | normalized growth |
| --- | --- |
| CC(=O)N[C@@H](CC(=O)O)C(=O)O | 1.01 (inactive) |
| O=[N+]([O-])/N=C1/NCCN1Cc1ccc(Cl)cc1 | 0.965 (inactive) |
| O=c1[nH]c2ccccc2n1C1CCN(CCCC(c2ccc(F)cc2)c2ccc(F)cc2)CC1 | 0.94 (inactive) |

Req: For the molecule CC1=C(C(=O)O)N2C(=O)[C@@H](NC(=O)[C@H](N)C3=CCC=CC3)C2SC1 (stereo partly specified) , what normalized growth is on record?
Resp: 1.03 (inactive)

Req: Name the recorded normalized growth for "COc1ccc2c(c1)[nH]c1c(C)nccc12" .
Resp: 1.02 (inactive)

Req: Query: normalized growth; subject: "O=c1cc(-c2ccc(O)cc2)oc2cc(O[C@@H]3O[C@H](CO)[C@@H](O)[C@H](O)[C@H]3O[C@@H]3OC[C@](O)(CO)[C@H]3O)cc(O)c12"
Resp: 0.994 (inactive)

Req: Reported normalized growth, molecule "Cc1ncc([N+](=O)[O-])n1CCO" : ____
Resp: 0.982 (inactive)

Req: Consider the molecule "c1ccc2c(c1)[nH]c1cnccc12" and give its measured normalized growth.
Resp: 1.02 (inactive)

Req: Could you tell me which normalized growth is on file for "Cc1c(N(C)CS(=O)(=O)O)c(=O)n(-c2ccccc2)n1C" ?
Resp: 0.961 (inactive)

Req: normalized growth lookup needed for "C=C(C)c1cc2cc(C(C)=O)c(O)cc2o1" , thanks.
Resp: 0.894 (inactive)

Req: Please give the measured normalized growth for this molecule: "COc1ccc2[nH]cc(CCNC(C)=O)c2c1"
Resp: 1.01 (inactive)

====

experiment: chemical genetic growth profiling, strain panel (AID 1159580);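 note: tested at 20 µM; growth read once vehicle control cultures reached saturation at 30 °C; 1 = growth at the plate median or of vehicle wells; lower values mean less growth of the strain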; conditions: S. cerevisiae deletion strains, growth OD, locus YML016C, strain PPZ1, active compounds read low
Screen size: about 5,500 compounds; about 2,000 (36%) were called active. Not shown: some 18% with an inconclusive outcome. The list shows a part of the results.
Each entry below carries its recorded normalized growth.

| compound | normalized growth |
| --- | --- |
| COc1cc(OC)c(-c2c(OC)cc(OC)cc2OC)c(OC)c1 | 1.02 (inactive) |
| CCCCC/C=C\C/C=C\C/C=C\C/C=C\CCCC(=O)O | 1 (inactive) |

// next entry
Req: Data request, read-out normalized growth, for C[C@]12CCC3C(CC[C@H]4CC(=O)CC[C@]34C)C1CCC2=O (some centres not stated)
Resp: 0.988 (inactive)

====

assay: chemical genetic growth profiling, strain panel (AID 1159580);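 note: tested at 20 µM; growth read once vehicle control cultures reached saturation at 30 °C; 1 = growth at the plate median or of vehicle wells; lower values mean less growth of the strain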; settings: S. cerevisiae deletion strains, growth OD, locus YLL041C, strain sdh2, active compounds read low
In all, about 5,500 compounds went through this assay and about 2,000 (36%) were called active. Not shown: some 18% with an inconclusive outcome. The list shows a part of the results.
measured-parameter: normalized growth
Give a plain numeric answer without units written out.

| molecule | measured-parameter | measured-number |
| --- | --- | --- |
| COc1c2c(cc3occ(-c4ccc5c(c4)OCO5)c(=O)c13)OC(C)(C)C=C2 | normalized growth | 0.996 |
| CC1(C)C=Cc2c(cc3occ(-c4ccc5c(c4)OCO5)c(=O)c3c2O)O1 | normalized growth | 0.993 |
| CCNc1nc(Cl)nc(NC(C)C)n1 | normalized growth | 1 |
| O=c1c(-c2ccc3c(c2)OCO3)coc2cc(O)ccc12 | normalized growth | 0.995 |
| O=C(O)CCCN1C(=O)c2cccc3cccc(c23)C1=O | normalized growth | 1.01 |

Req: normalized growth lookup needed for "CCCCCN=C(N)N/N=C\c1c[nH]c2ccc(OC)cc12" , thanks.
Resp: 1

Req: Recorded normalized growth of COc1cc(OC)c2c(c1Cl)OC1(C2=O)C(O)=CC(=O)CC1C (stereo not drawn) , please.
Resp: 1.01

Req: Can you share its normalized growth? I mean this molecule: "O=C(/C=C/C(=O)Oc1ccccc1C(=O)O)Oc1ccccc1C(=O)O"
Resp: 0.987

Req: Which normalized growth is listed for "O=c1[nH]c2ccccc2n1C1CCN(CCCC(c2ccc(F)cc2)c2ccc(F)cc2)CC1" ?
Resp: 1.02

Req: # normalized growth lookup, item "COc1cc2ccc(=O)oc2c2ccoc12"
Resp: 0.991

Req: For the molecule shown here, CC1=C2CCC3C(CC[C@]4(C)C(=O)CCC34)[C@@]2(C)CCC1=O (stereo partly drawn) , give the reported normalized growth.
Resp: 0.984

Req: Need normalized growth, item "COc1c2occc2cc2ccc(=O)oc12"
Resp: 0.981

Req: normalized growth for "NCCS" ?
Resp: 0.998

====

assay: chemical genetic growth profiling, strain panel (AID 1159580);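 note: tested at 20 µM; growth read once vehicle control cultures reached saturation at 30 °C; 1 = growth at the plate median or of vehicle wells; lower values mean less growth of the strain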; conditions: S. cerevisiae deletion strains, growth OD, locus YAL030W, strain snc1, active compounds read low
About 2,000 (36%) of roughly 5,500 compounds were called active. About 18% were inconclusive and are not listed. The list shows a part of the results.
measured-parameter: normalized growth
# respond with the number and nothing more

| compound | measured-number |
| --- | --- |
| COc1c2occc2cc2ccc(=O)oc12 | 0.975 |
| CCNc1nc(Cl)nc(NC(C)C)n1 | 0.999 |
| Fc1ccc(C(c2ccc(F)cc2)N2CCN(C/C=C/c3ccccc3)CC2)cc1 | 0.293 |

Req: Reported normalized growth for "N#C/C(=C\c1ccc(O)cc1)C(=O)O" : what is it?
Resp: 1.01

Req: Field request: normalized growth | item: "CN(C)c1nc(N(C)C)nc(N(C)C)n1"
Resp: 1

Req: What measured normalized growth goes with "O=C(O)c1cccc(O)c1O" ?
Resp: 1.01

Req: What value of normalized growth has been reported for the following compound? "O=C1c2ccccc2C(=O)c2c1ccc(O)c2O"
Resp: 0.578

Req: Field request: normalized growth | item: "Cc1c(N(C)CS(=O)(=O)O)c(=O)n(-c2ccccc2)n1C"
Resp: 1.01
